Source of measurements: patent US20230203146A1

target entity: T1, FLAG-tagged cynomolgus Ang2 (cynomolgus, UniProt O15123 19-496 (human entry), limits assumed)
T1 construct: N-terminally FLAG-tagged, conditioned medium of HEK293T cells; also called cAng2; FLAG-cAng2
T1 chain: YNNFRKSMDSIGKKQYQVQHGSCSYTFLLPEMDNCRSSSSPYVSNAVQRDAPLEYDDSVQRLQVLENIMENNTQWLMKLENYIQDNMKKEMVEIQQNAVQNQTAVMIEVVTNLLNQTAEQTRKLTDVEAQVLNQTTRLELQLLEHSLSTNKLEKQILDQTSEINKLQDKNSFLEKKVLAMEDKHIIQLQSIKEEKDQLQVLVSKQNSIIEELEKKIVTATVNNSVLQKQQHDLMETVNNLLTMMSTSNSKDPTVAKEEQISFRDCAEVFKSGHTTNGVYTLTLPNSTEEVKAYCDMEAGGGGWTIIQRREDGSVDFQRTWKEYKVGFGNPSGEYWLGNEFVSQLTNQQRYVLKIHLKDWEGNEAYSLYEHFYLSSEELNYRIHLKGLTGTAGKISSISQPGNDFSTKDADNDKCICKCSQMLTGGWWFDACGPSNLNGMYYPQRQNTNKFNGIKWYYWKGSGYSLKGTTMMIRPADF
assay info: competition ELISA: FLAG-cAng2 binding to coated cTie2-Fc
Binned IC50; ranges: bucket A: < 1 nM; bucket B: ≥ 1 nM and < 6 nM; bucket C: ≥ 6 nM

q: GET /class?item= VHH 00027 (VHH, not shown: small tags and cut ends, Variant of 28D10 carrying C50S/S53N and Q108L) VHH: EVQLVESGGGLVQAGGSLRLSCAASGFTLDDYAIGWFRQAPGKEREGVSSIRDNDGSTYYADSVKGRFTISSDNDKNTVYLQMNSLKPEDTAVYYCAAVPAGRLRFGEQWYPLYEYDAWGQGTLVTVSS
a: bucket A

q: GET /class?item= VHH 00040 (VHH, not shown: small tags and cut ends) VHH: EVQLVESGGGLVQPGGSLRLSCAASGFTFDDYALGWFRQAPGKEREGVSCIRCSDGSTYYADSVKGRFTISRDNSKNTVYLQMNSLRPEDTAVYYCAASIVPRSKLEPYEYDAWGQGTLVTVSS
a: bucket B

q: GET /class?item= VHH 00041 (VHH, not shown: small tags and cut ends) VHH: EVQLVESGGGLVQPGGSLRLSCAASGFTLDDYAIGWFRQAPGKEREGVSSIRDNDGSTYYADSVKGRFTISSDNAKNTVYLQMNSLRPEDTAVYYCAAVPAGRLRFGEQWYPLYEYDAWGQGTLVTVSS
a: bucket A

q: GET /class?item= VHH 00026 (VHH, not shown: small tags and cut ends) VHH: EVQLVESGGGLVQAGGSLRLSCAASGFTLDDYAIGWFRQAPGKEREGVSAIRDSDGSTYYADSVKGRFTISSDNDKNTVYLQMNSLKPEDTAVYYCAAVPAGRLRFGEQWYPLYEYDAWGQGTLVTVSS
a: bucket B

q: GET /class?item= VHH 00055 (VHH, not shown: small tags and cut ends) VHH: EVQLVESGGGLVQAGGSLRLSCAASGFTLDDYAIGWFRQAPGKEREGVSSIRDNGGSTYYADSVKGRFTISSDNDKNTVYLQMNSLKPEDTAVYYCAAVPAGRLRFGEQWYPLYEYDAWGQGTLVTVSS
a: bucket B

q: GET /class?item= VHH 00044 (VHH, not shown: small tags and cut ends) VHH: EVQLVESGGGLVQPGGSLRLSCAASGFALDYYAIGWFRQAPGKEREGVSCISSSDGITYYVDSVKGRFTISRDNSKNTVYLQMNSLRPEDTAVYYCATDSGGYIDYDCMGLGYDYWGQGTLVTVSS
a: bucket A

q: GET /class?item= VHH 00025 (VHH, not shown: small tags and cut ends) VHH: EVQLVESGGGLVQAGGSLRLSCAASGFTLDDYAIGWFRQAPGKEREGVSTIRDSDGSTYYADSVKGRFTISSDNDKNTVYLQMNSLKPEDTAVYYCAAVPAGRLRFGEQWYPLYEYDAWGQGTLVTVSS
a: bucket B

q: GET /class?item= VHH 00039 (VHH, not shown: small tags and cut ends) VHH: EVQLVESGGGLVQPGGSLRLSCAASGFTFDDYALGWFRQAAGKEREGVSCIRCSDGSTYYADSVKGRFTISRDNSKNTVYLQMNSLRPEDTAVYYCAASIVPRSKLEPYEYDAWGQGTLVTVSS
a: bucket C

q: GET /class?item= VHH 00050 (VHH, not shown: small tags and cut ends) VHH: EVQLVESGGGLVQPGGSLRLSCAASGFTFDDYALGWFRQAPGKEREGVSCIRCSDGSTYYADSVKGRFTISSDNSKNTVYLQMNSLRPEDTAVYYCAASIVPRSKLEPYEYDAWGQGTLVTVSS
a: bucket B

q: GET /class?item= VHH 00043 (VHH, not shown: small tags and cut ends) VHH: EVQLVESGGGLVQPGGSLRLSCAASGFTLDDYAIGWFRQAPGKEREGVSSIRDNDGSTYYADSVKGRFTISRDNAKNTVYLQMNSLRPEDTAVYYCAAVPAGRLRFGEQWYPLYEYDAWGQGTLVTVSS
a: bucket C

q: GET /class?item= VHH 1D01 (VHH, not shown: small tags and cut ends, Parental llama VHH; also called 001D01) VHH: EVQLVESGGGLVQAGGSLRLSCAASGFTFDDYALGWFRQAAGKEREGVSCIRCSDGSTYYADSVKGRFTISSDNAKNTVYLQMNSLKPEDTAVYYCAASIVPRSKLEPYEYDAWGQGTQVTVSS
a: bucket C

q: GET /class?item= VHH 00921 (VHH, not shown: small tags and cut ends) VHH: EVQLVESGGGLVQPGGSLRLSCAASGFTFDDYALGWFRQAPGKEREGVSCIRCSGGSTYYADSVKGRFTISSDNSKNTVYLQMNSLRPEDTAVYYCAASIVPRSKLEPYEYDAWGQGTLVTVSS
a: bucket C

q: GET /class?item= VHH 00045 (VHH, not shown: small tags and cut ends) VHH: EVQLVESGGGLVQPGGSLRLSCAASGFALDYYAIGWFRQAPGKEREGVSCISSSDGITYYADSVKGRFTISRDNSKNTVYLQMNSLRPEDTAVYYCATDSGGYIDYDCMGLGYDYWGQGTLVTVSS
a: bucket A

q: GET /class?item= VHH 28D10 (VHH, not shown: small tags and cut ends, Parental llama VHH; also called 028D10) VHH: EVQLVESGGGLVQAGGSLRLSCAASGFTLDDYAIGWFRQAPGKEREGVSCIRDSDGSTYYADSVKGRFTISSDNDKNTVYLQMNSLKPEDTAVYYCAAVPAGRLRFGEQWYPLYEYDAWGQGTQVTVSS
a: bucket B

q: GET /class?item= VHH 00054 (VHH, not shown: small tags and cut ends) VHH: EVQLVESGGGLVQPGGSLRLSCAASGFTLDDYAIGWFRQAPGKEREGVSSIRDNDGSTYYADSVKGRFTISRDNSKNTVYLQMNSLRPEDTAVYYCAAVPAGRLRFGEQWYPLYEYDAWGQGTLVTVSS
a: bucket C
